Quick reference: OD490 value, Well 3 of the listed items.
Tested on: Hela cell line
Assay notes: Cytotoxicity MTS assay, Hela cell line;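 also: blank control wells received 0.025% DMSO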
Format: cell-based
Condition: Hela cell line, MTS, 0.5μM, first assay

| Molecule | OD490 value, Well 3 |
| --- | --- |
| CCOC(=O)c1c(C2NC(=O)NC(C)=C2C(=O)Nc2ccccc2)[nH]c(C(=O)OC)c1C (stereo not drawn) | 2.6514 |
| CCOC(=O)c1[nH]c(C2NC(=S)NC(C)=C2C(=O)OC)c(C(=O)OCC)c1C (stereo not drawn) | 2.3285 |
| CCOC(=O)c1c(C2NC(=O)NC(C)=C2C(=O)Nc2ccccc2C)[nH]c(C(=O)OC)c1C (stereo not drawn) [D2] | 2.4982 |
